Catalogue of optical density values
system.under.test: Human Fc (human)
protocol.notes: ELISA; negative control

binder	measure.unit	optical density
366_A07 (antibody, V domains shown) VH: EVQLLESGGGLVQPGGSLRLSCAASGFTFSSYGMHWVRQAPGKGLEWVASINYNGGYTGYADSVKGRFTISRDNSKNTLYLQMNSLRAEDTAVYYCARSANWHDTALDYWGQGTLVTVSS VL: DIQMTQSPSSLSASVGDRVTITCRASQSIVSYVNWYQQKPGKAPKLVIYAATSRHSGVPSRFSGSGSGTDFTLTISSLQPEDFATYYCQQSYESPLTFGGGTKVEIK	OD	0.309
367_B07 (antibody, V domains shown) VH: EVQLLESGGGLVQPGGSLRLSCAASGFTFSDYSMNWVRQAPGKGLEWVAGINYNSGYTGYADSVKGRFTISRDNSKNTLYLQMNSLRAEDTAVYYCARSANWHDTHLDYWGQGTLVTVSS VL: DIQMTQSPSSLSASVGDRVTITCRASQSIISYVNWYQQKPGKAPKLLIYAATSLASGVPSRFSGSGSGTDFTLTISSLQPEDFATYYCQQSYNLPLTFGGGTKVEIK	OD	0.236
376_A02 (antibody, V domains shown) VH: EVQLLESGGGLVQPGGSLRLSCAASGFTFSSYSMNWVRQAPGKGLEWVAGINYNGGYKSYADSVKGRFTISRDNSKNTLYLQMNSLRAEDTAVYYCARGATWHDTHLDYWGQGTLVTVSS VL: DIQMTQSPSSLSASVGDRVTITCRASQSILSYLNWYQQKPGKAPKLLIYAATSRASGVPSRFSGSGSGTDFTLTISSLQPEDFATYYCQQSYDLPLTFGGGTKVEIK	OD	0.22

These measurements were taken from patent US20210380703A1.
